Tested on: HepG2 cells
Assay: Test Example 2: inhibition of apolipoprotein B secretion from HepG2 cells, ELISA (also used for metabolites in Test Example 8)
Type: cell-based
Conditions: Homo sapiens, 24 hours, apo B in supernatant by ELISA, read-out: Test Example 2 Inhibition of apo B secretion IC50
Procedure: Inhibition of Apolipoprotein B Secretion from HepG2 Cells […] ELISA was carried out as follows. […] The reaction was stopped by addition of 2% oxalic acid (100 μL/well), and absorbency at 405 nm was measured. Concentration of apo B in the sample was calculated on the basis of a standard curve of the standard. Inhibition rate (%) was calculated from the assayed values in accordance with the following equation. […]
pIC50: −log10 of the molar value.
Use 8 as the dividing line for pIC50, with the line itself on the Y side and lower values as N.

> print(dat)
                                   compound    tested.on  class
1  O=C(Cc1ccc(NC(=O)c2ccccc2-c2ccc(C(F)(F)F)cc2)cc1)OCC(C(=O)NCC(F)(F)F)c1ccccc1 (stereo not drawn)  HepG2 cells      N
2  O=C(N[C@H]1CC[C@H](C(=O)OCCC2(C(=O)NCC(F)(F)F)c3ccccc3-c3ccccc32)CC1)c1ccccc1-c1ccc(C(F)(F)F)cc1  HepG2 cells      N
3  CCOC(=O)C(COC(=O)Cc1ccc(NC(=O)c2ccccc2-c2ccc(C(F)(F)F)cc2)c(C(=O)N2CCCC2)c1)(C(=O)OCC)c1ccccc1  HepG2 cells      Y
4  CCOC(=O)C(COC(=O)Cn1cnc2c(NC(=O)c3ccccc3-c3ccc(C(F)(F)F)cc3)cccc21)(C(=O)OCC)c1ccccc1  HepG2 cells      N
5  CCOC(=O)C(COC(=O)Cc1ccc(NC(=O)c2ccc(OC)cc2-c2ccc(C(F)(F)F)cc2)c(C(=O)N(C)C)c1)(C(=O)OCC)c1ccccc1  HepG2 cells      Y

###

Quick reference for concentration at 1 h among some molecules
Test: Test Example 6: determination of the concentration in plasma (unchanged form and metabolite, orbital venous plexus and portal vein, LC/MS)
Assay type: in vivo
Conditions: hamster, plasma from portal vein blood, oral; 1 h after 30 mg/kg p.o., Syrian hamsters; read-out: Concentration in plasma, unaltered form, blood of portal vein
Assay Endpoint: concentration at 1 h

> print(dat)
                                   molecule  recorded.measurement
1  CCOC(=O)C(COC(=O)Cc1ccc(NC(=O)c2ccccc2-c2ccc(C(F)(F)F)cc2)c(C(=O)N(C)C)c1)(C(=O)OCC)c1ccccc1                 10 nM
2  CCOC(=O)C(COC(=O)Cc1ccc(OC(=O)c2ccccc2-c2ccc(C(F)(F)F)cc2)cc1)(C(=O)OCC)c1ccccc1              < 200 nM
3  COC(=O)C(COC(=O)Cc1ccc(NC(=O)c2ccccc2-c2ccc(C(F)(F)F)cc2)cc1)(C(=O)OC)c1ccccc1              < 200 nM
4  O=C(Cc1ccc(NC(=O)c2ccccc2-c2ccc(C(F)(F)F)cc2)cc1)OCC(C(=O)NCC(F)(F)F)(C(=O)NCC(F)(F)F)c1ccccc1              < 200 nM

###

Tested on: HepG2 cells
Assay: Test Example 2: inhibition of apolipoprotein B secretion from HepG2 cells, ELISA (also used for metabolites in Test Example 8)
Format: cell-based
Conditions: Homo sapiens, 24 hours, apo B in supernatant by ELISA, read-out: Test Example 2 Inhibition of apo B secretion IC50
// boundary case: IC50 equal to 6 nM maps to not satisfied; strictly smaller maps to satisfied

> print(dat)
                                   molecule          class
1  CCCNC(=O)C(COC(=O)Cc1ccc(NC(=O)c2ccccc2-c2ccc(C(F)(F)F)cc2)c(C)c1)(C(=O)NCCC)c1ccccc1      satisfied
2  CCCN(C)C(=O)c1cc(CC(=O)OCCC(C(=O)NCC)(C(=O)NCC)c2ccccc2)ccc1NC(=O)c1ccccc1-c1ccc(C(F)(F)F)cc1      satisfied
3  CCNC(=O)C(COC(=O)Cc1ccc(NC(=O)c2ccccc2C(F)(F)F)c(C(=O)N(C)C)c1)(C(=O)NCC)c1ccccc1  not satisfied
4  CCC(=O)N[C@@H](COC(=O)Cc1ccc(NC(=O)c2ccccc2-c2ccc(C(F)(F)F)cc2)c(C(=O)N(C)C)c1)c1ccccc1  not satisfied
5  CCNC(=O)C(COC(=O)Cc1ccc(NC(=O)c2ccccc2-c2ccc(C(F)(F)F)cc2)cc1)(C(=O)NCC)c1ccccc1      satisfied
6  CC(C)CCNC(=O)C(COC(=O)Cc1ccc(NC(=O)c2ccccc2-c2ccc(C(F)(F)F)cc2)cc1)(C(=O)NCCC(C)C)c1ccccc1  not satisfied

###

Quick reference for concentration at 1 h among some compounds
Experiment: Test Example 6: determination of the concentration in plasma (unchanged form and metabolite, orbital venous plexus and portal vein, LC/MS)
Assay type: in vivo
Details: hamster, plasma from peripheral blood (orbital venous plexus), oral; 1 h after 30 mg/kg p.o., Syrian hamsters; read-out: Concentration in plasma, unaltered form, peripheral blood
Assay Endpoint: concentration at 1 h

> print(dat)
                                   molecule        assay.endpoint  recorded.measurement
1  CCOC(=O)C(COC(=O)Cc1ccc(NC(=O)c2ccccc2-c2ccc(C(F)(F)F)cc2)c(C(=O)N(C)C)c1)(C(=O)OCC)c1ccccc1  concentration at 1 h               < 20 nM
2  COC(=O)C(COC(=O)Cc1ccc(NC(=O)c2ccccc2-c2ccc(C(F)(F)F)cc2)cc1)(C(=O)OC)c1ccccc1  concentration at 1 h              < 200 nM
3  CCOC(=O)C(COC(=O)Cc1ccc(OC(=O)c2ccccc2-c2ccc(C(F)(F)F)cc2)cc1)(C(=O)OCC)c1ccccc1  concentration at 1 h              < 200 nM
4  O=C(Cc1ccc(NC(=O)c2ccccc2-c2ccc(C(F)(F)F)cc2)cc1)OCC(C(=O)NCC(F)(F)F)(C(=O)NCC(F)(F)F)c1ccccc1  concentration at 1 h              < 200 nM

###

Test system: Syrian hamsters
Experiment: Test Example 3: olive oil-loading test (inhibition of fat absorption, plasma TG)
Format: in vivo
Settings: Mesocricetus auratus, po; 3 mg/kg p.o.; plasma TG 4 hours after olive oil; read-out: Test Example 3 Inhibition of fat absorption after olive oil-loading in Hamster Inhibition rate (%)
Experimental: Syrian hamsters (9-11 weeks of age) under non-fasted conditions were used in the test. […] Plasma was recovered from the blood, and the amount of triglyceride (TG) in the plasma was determined by automatic analyzer (Hitachi Co.). […] Inhibition rate (%) was calculated from the data obtained on the basis of the following equation. […]
Use 80% as the dividing line for inhibition in vivo at 3 mg/kg, with the line itself on the TRUE side and lower values as FALSE.

> print(dat)
                                   molecule        tested.on  class
1  CCOC(=O)C(COC(=O)Cc1ccc(NC(=O)c2ccc(C)cc2-c2ccc(C(F)(F)F)cc2)c(C(=O)N(C)C)c1)(C(=O)OCC)c1ccccc1 [Example 2-48]  Syrian hamsters   TRUE
2  CCCN(C)C(=O)c1cc(CC(=O)OCC(C(=O)OCC)(C(=O)OCC)c2ccccc2)ccc1NC(=O)c1ccccc1-c1ccc(C(F)(F)F)cc1 [Example 2-18]  Syrian hamsters  FALSE
3  CCNC(=O)C(COC(=O)Cc1ccc(NC(=O)c2ccccc2-c2ccc(C(F)(F)F)cc2)c(CC)c1)(C(=O)NCC)c1ccccc1 [Example 1-5]  Syrian hamsters  FALSE
4  CCNC(=O)C(COC(=O)Cc1ccc(NC(=O)c2ccccc2-c2ccc(C(F)(F)F)cc2)c(OC(C)C)c1)(C(=O)NCC)c1ccccc1 [Example 3-10]  Syrian hamsters   TRUE
5  CCOC(=O)C(COC(=O)Cc1ccc(NC(=O)c2ccccc2-c2ccc(C(F)(F)F)cc2)c(C(=O)N(C)C)c1)(C(=O)OCC)c1ccccc1 [Example 2-5]  Syrian hamsters  FALSE

###

Tested on: HepG2 cells
Assay: Test Example 2: inhibition of apolipoprotein B secretion from HepG2 cells, ELISA (also used for metabolites in Test Example 8)
Assay type: cell-based
Settings: Homo sapiens, 24 hours, apo B in supernatant by ELISA, read-out: Test Example 2 Inhibition of apo B secretion IC50
The class of a record is decided solely by its measured IC50; consult small value = under 2 nM, mid value = from 2 nM up to 100 nM, large value = 100 nM and over

> print(dat)
                                    molecule        class
 1  O=C(Cc1ccc(OC(=O)c2ccccc2-c2ccc(C(F)(F)F)cc2)cc1)OCC(C(=O)NCC(F)(F)F)(C(=O)NCC(F)(F)F)c1ccccc1 [Example 1-28]  large value
 2  CC(C)NC(=O)C(COC(=O)Cc1ccc(NC(=O)c2ccccc2-c2ccc(C(F)(F)F)cc2)cc1)(C(=O)NC(C)C)c1ccccc1 [Example 1-25]    mid value
 3  CCOC(=O)C(COC(=O)Cc1ccc(NC(=O)c2ccccc2-c2ccc(C(F)(F)F)cc2)c(C(=O)N(C)OC)c1)(C(=O)OCC)c1ccccc1 [Example 9-27]  small value
 4  CCCC(=O)N[C@H](COC(=O)Cc1ccc(NC(=O)c2ccccc2-c2ccc(C(F)(F)F)cc2)c(C(=O)N(C)C)c1)c1ccccc1 [Example 2-36]    mid value
 5  CCOC(=O)C(COC(=O)CN1CCC(NC(=O)c2ccccc2-c2ccc(C(F)(F)F)cc2)CC1)(C(=O)OCC)c1ccccc1 [Example 8]  large value
 6  CCOC(=O)C(COC(=O)Cc1cc(Cl)c(NC(=O)c2ccccc2-c2ccc(C(F)(F)F)cc2)c(C(=O)N(C)C)c1)(C(=O)OCC)c1ccccc1 [Example 2-60]  small value
 7  CCOC(=O)C(COC(=O)Cc1ccc(NC(=O)c2ccc(C(F)(F)F)cc2-c2ccc(C(F)(F)F)cc2)c(C(=O)N(C)C)c1)(C(=O)OCC)c1ccccc1 [Example 2-78]  small value
 8  CCNC(=O)C(COC(=O)Cc1ccc(NC(=O)c2cccnc2-c2ccc(C(F)(F)F)cc2)cc1)(C(=O)NCC)c1ccccc1 [Example 1-76]  large value
 9  C=CCC(COC(=O)Cc1ccc(NC(=O)c2ccccc2-c2ccc(C(F)(F)F)cc2)c(C(=O)N(C)C)c1)(C(=O)OCC)C(=O)OCC [Example 2-117]    mid value
10  CCOC(=O)C(COC(=O)Cc1cccc(NC(=O)c2ccccc2-c2ccc(C(F)(F)F)cc2)c1)(C(=O)OCC)c1ccccc1 [Example 5-2]  large value
11  CCOC(=O)C(CCOC(=O)Cc1cccc(NC(=O)c2ccccc2-c2ccc(C(F)(F)F)cc2)c1OC(C)C)(C(=O)OCC)c1ccccc1 [Example 5-16]    mid value
12  CCOC(=O)C(CCOC(=O)Cc1ccc(NC(=O)c2ccccc2-c2ccc(C(F)(F)F)cc2)c(C(=O)N(C)C)c1)(C(=O)OCC)c1ccccc1 [Example 2-32]  small value
